Target: human TRPC6 ion channel (Homo sapiens)
Sequence (Q9Y210 1-931): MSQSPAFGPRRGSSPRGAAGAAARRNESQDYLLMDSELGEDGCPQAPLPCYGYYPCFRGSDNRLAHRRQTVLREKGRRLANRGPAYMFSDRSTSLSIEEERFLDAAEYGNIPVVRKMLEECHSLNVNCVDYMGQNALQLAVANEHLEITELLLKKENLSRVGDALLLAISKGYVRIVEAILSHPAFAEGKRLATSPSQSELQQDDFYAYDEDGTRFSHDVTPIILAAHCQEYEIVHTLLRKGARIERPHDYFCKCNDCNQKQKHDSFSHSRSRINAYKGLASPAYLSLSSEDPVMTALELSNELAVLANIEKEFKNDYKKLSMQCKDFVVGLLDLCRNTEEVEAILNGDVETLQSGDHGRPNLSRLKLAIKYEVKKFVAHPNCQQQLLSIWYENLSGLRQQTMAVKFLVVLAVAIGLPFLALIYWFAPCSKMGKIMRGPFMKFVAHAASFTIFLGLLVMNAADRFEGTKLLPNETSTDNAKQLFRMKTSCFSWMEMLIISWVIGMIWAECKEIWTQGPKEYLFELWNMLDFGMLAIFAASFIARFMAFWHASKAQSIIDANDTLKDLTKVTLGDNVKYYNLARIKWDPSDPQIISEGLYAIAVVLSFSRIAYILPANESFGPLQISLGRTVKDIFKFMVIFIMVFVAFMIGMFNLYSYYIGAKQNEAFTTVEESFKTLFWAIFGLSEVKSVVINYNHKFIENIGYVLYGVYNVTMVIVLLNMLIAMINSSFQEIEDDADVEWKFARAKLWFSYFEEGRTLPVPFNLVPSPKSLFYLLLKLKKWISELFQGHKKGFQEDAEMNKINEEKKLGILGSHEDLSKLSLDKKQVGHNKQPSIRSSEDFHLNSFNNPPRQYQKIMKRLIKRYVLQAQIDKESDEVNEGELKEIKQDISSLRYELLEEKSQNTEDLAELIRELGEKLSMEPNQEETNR
Assay: FLIPR membrane potential assay, carbachol-stimulated TRPC6-expressing cells (TRPC6 clone 14)
Conditions: mean±S.E.M. from n=4 experiments; carbachol 10 μM; read-out: calculated mean IC50 value
Protocol: In a suitable test for any inhibition of the TRPC6 channel, cells that express an endogenous G protein-coupled calcium mobilising receptor e.g. muscarinic acetylcholine receptor that can activate TRPC6 channels are used and a receptor agonist e.g. muscarinic acetylcholine receptor agonist is added to stimulate the TRPC6 channels. […] That should produce an increase in fluorescence, but the magnitude of the increase will be reduced if the candidate substance inhibits the TRPC6 channels. […]
Measure: pIC50
Note on units: pIC50 is unitless, being -log10 of a concentration expressed in mol/L.

Tell me measured pIC50 for COc1ccc(CCCOC(Cn2ccnc2)c2ccc(OC)cc2)cc1 (stereo not shown) please.
5.31
